Target: Steroid 17-alpha-hydroxylase/17,20 lyase (Homo sapiens, UniProt P05093)
Sequence (P05093 whole entry): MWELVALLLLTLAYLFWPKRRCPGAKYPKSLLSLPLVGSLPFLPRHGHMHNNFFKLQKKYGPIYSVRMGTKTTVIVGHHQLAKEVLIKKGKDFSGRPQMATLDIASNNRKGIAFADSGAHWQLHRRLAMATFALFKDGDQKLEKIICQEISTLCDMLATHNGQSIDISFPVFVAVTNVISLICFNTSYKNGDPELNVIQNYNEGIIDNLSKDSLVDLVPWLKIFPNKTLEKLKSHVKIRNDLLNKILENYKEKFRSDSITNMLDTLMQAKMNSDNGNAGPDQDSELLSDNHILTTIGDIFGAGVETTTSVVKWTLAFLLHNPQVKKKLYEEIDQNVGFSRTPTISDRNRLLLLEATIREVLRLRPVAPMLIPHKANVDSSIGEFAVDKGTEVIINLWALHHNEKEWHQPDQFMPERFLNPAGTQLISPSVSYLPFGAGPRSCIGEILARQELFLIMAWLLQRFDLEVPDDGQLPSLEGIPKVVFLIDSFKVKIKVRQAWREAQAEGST
Test: Inhibition of human CYP17 expressed in Escherichia coli coexpressing NADPH reductase at 2 uM
Conditions: 2 µM
property: Activity

Under Steroid 17-alpha-hydroxylase/17,20 lyase (Homo sapiens, UniProt P05093): Activity value of "CC(C)(C)c1ccc(CN(Cc2cccs2)n2cncn2)cc1" ?
Not Active

What Activity appears in the records for this compound with Steroid 17-alpha-hydroxylase/17,20 lyase (Homo sapiens, UniProt P05093)? "Fc1ccc(CN(Cc2ccc(-c3ccccc3)cc2)n2ccnc2)c(F)c1"
Not Active

Under Steroid 17-alpha-hydroxylase/17,20 lyase (Homo sapiens, UniProt P05093): Activity value of "Clc1ccc(CN(Cc2cccc3ccccc23)n2cncn2)c(Cl)c1" ?
Not Active

Tell me reported Activity for "c1ccc(CN(Cc2ccc(-c3ccccc3)cc2)n2ccnc2)cc1" , tested with Steroid 17-alpha-hydroxylase/17,20 lyase (Homo sapiens, UniProt P05093).
Not Active

Activity of Fc1ccccc1CC(Cc1ccc(-c2ccccc2)cc1)n1ccnc1 (stereo not given) on Steroid 17-alpha-hydroxylase/17,20 lyase (Homo sapiens, UniProt P05093)?
Not Active

What measured Activity is associated with "Fc1ccccc1CN(Cc1ccc(-c2ccccc2)cc1)n1ccnc1" on Steroid 17-alpha-hydroxylase/17,20 lyase (Homo sapiens, UniProt P05093)?
Not Active

Enter reported Activity observed with Steroid 17-alpha-hydroxylase/17,20 lyase (Homo sapiens, UniProt P05093) for "CC(C)(C)c1ccc(CN(Cc2cccs2)n2cnnc2)cc1"
Not Active

// fetch Steroid 17-alpha-hydroxylase/17,20 lyase (Homo sapiens, UniProt P05093) Activity for "CC(C)(C)c1ccc(CN(Cc2ccc(-c3ccccc3)cc2)n2ccnc2)cc1"
Not Active

***
What reported Activity corresponds to CC(C)(C)c1ccc(CC(Cc2ccc(-c3ccccc3)cc2)n2ccnc2)cc1 (stereo not given) on Steroid 17-alpha-hydroxylase/17,20 lyase (Homo sapiens, UniProt P05093)?
Not Active

Recorded Activity for "Clc1ccc(CN(CC/C=C/c2ccccc2)n2cnnc2)c(Cl)c1" with Steroid 17-alpha-hydroxylase/17,20 lyase (Homo sapiens, UniProt P05093), please?
Not Active

====

Molecular target: CYP17 (steroid 17-alpha-hydroxylase/17,20 lyase) (Homo sapiens)
Sequence (P05093 whole entry): as above
Test: Inhibition of human CYP17 expressed in Escherichia coli coexpressing NADPH reductase at 2 uM
property: inhibition at 2 µM (%)

Looking for the measured inhibition at 2 µM of "CC(C)(C)c1ccc(CN(Cc2cccc3ccccc23)n2ccnc2)cc1" , can you help?
13

Please report the recorded inhibition at 2 µM for "CC(C)(C)c1ccc(CN(Cc2cccc3ccccc23)n2cncn2)cc1" .
3.13

Which measured inhibition at 2 µM value corresponds to "Clc1ccc(CN(Cc2ccc(Cl)s2)n2ccnc2)c(Cl)c1" ?
56.2

Would you kindly share the measured inhibition at 2 µM for "Cc1ccccc1CN(Cc1ccc(-c2ccccc2)cc1)n1ccnc1" ?
20.6

Please report the recorded inhibition at 2 µM for Clc1ccc(CC(Cc2ccc(-c3ccccc3)cc2)n2ccnc2)s1 (configuration not stated) .
25.7

[a] Clc1ccccc1CN(Cc1ccc(-c2ccccc2)cc1)n1ccnc1
[b] CC(C)(C)c1ccc(CN(Cc2ccc(Cl)cc2Cl)n2ccnc2)cc1
Returns the identifier with the smallest measured inhibition at 2 µM among a and b . Please respond with the label that marks your chosen entry.
a

[A] C(=C\c1ccccc1)/CCN(Cc1cccc2ccccc12)n1cnnc1
[B] Clc1ccc(CN(Cc2ccc(-c3ccccc3)cc2)n2ccnc2)cc1
[C] COc1ccc(CN(Cc2ccc(-c3ccccc3)cc2)n2ccnc2)cc1
[D] Clc1ccc(CN(Cc2ccc(-c3ccccc3)cc2)n2cncn2)c(Cl)c1
Hello, I need these entries ordered by inhibition at 2 µM, highest reading first. Thanks! Write out the labels following the order that was asked for.
C, B, D, A
(C: 21.7%, B: 13.6%, D: 9.2%, A: 6.1%)

[P] Clc1ccc(CN(Cc2cccc3ccccc23)n2cnnc2)c(Cl)c1
[Q] Clc1ccc(CN(Cc2ccccc2)n2ccnc2)s1
[R] CC(C)(C)c1ccc(CN(CC/C=C/c2ccccc2)n2cnnc2)cc1
[S] Clc1ccc(CN(Cc2ccc(-c3ccccc3)cc2)n2cnnc2)c(Cl)c1
[T] COc1ccccc1CC(Cc1ccc(-c2ccccc2)cc1)n1ccnc1 (configuration not stated)
Arrange by inhibition at 2 µM, high to low. A complete answer lists every label in the requested sequence.
T, R, S, Q, P

[P] Clc1ccc(CN(Cc2cccc3ccsc23)n2ccnc2)c(Cl)c1
[Q] C(=C\c1ccccc1)/CCN(Cc1ccc(-c2ccccc2)cc1)n1cnnc1
I need your help: which of the pair P , Q has higher inhibition at 2 µM? Lab note: record the label of whichever item you select.
Q

[I] CC(C)(C)c1ccc(CN(Cc2cccs2)n2ccnc2)cc1
[II] CC(C)(C)c1ccc(CN(Cc2ccc(Cl)cc2Cl)n2cncn2)cc1
[III] CC(C)(C)c1ccc(CN(Cc2ccc(-c3ccccc3)cc2)n2cncn2)cc1
[IV] c1ccc(CC(Cc2ccc(-c3ccccc3)cc2)n2ccnc2)cc1 (configuration not stated)
[V] COc1ccc(CC(Cc2ccc(-c3ccccc3)cc2)n2ccnc2)cc1 (configuration not stated)
Put the compounds in ascending order of inhibition at 2 µM. Response format: the labels, sorted as the prompt asks.
II, III, I, IV, V

[P] Clc1ccc(CC(Cc2ccccc2)n2ccnc2)s1 (configuration not stated)
[Q] Clc1ccccc1CC(Cc1ccc(-c2ccccc2)cc1)n1ccnc1 (configuration not stated)
In terms of reported inhibition at 2 µM, does P or Q have the smaller number? Refer to your chosen entry by its label in the reply.
P
(P: 7.97%, Q: 22.6%)

[I] Fc1ccc(CN(Cc2ccc(-c3ccccc3)cc2)n2ccnc2)cc1
[II] Cc1ccccc1CC(Cc1ccc(-c2ccccc2)cc1)n1ccnc1 (configuration not stated)
Identify the entry with the smaller inhibition at 2 µM: I or II . Refer to your chosen entry by its label in the reply.
I
(I: 13.9%, II: 25%)
